Target: Gonadotropin-releasing hormone receptor (Homo sapiens, UniProt P30968)
Sequence (P30968 whole entry): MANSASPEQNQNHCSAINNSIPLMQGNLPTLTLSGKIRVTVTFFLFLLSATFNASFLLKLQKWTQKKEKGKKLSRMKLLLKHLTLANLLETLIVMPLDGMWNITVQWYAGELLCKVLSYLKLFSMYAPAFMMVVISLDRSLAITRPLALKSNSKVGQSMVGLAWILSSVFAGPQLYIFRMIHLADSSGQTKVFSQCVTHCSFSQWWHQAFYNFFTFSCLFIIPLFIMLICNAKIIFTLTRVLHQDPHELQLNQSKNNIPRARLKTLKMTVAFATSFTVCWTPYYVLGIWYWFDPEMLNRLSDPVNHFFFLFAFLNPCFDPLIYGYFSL
Test: Binding evaluated in cloned human Gonadotropin-releasing hormone receptor by displacement of [125 I-Tyr, DLeu, NMeLeu, Pro-NEt]GnRH agonist
Conditions: read-out: Ki
# label = met if Ki < 80 nM else not met

>>> print(df.to_string())
                            compound_smiles                            assayed_target    group
0  COc1ccc(-c2nc3n(Cc4ccccc4F)c(C)c(-c4ccc5c(c4)OCO5)c(=O)n3c2CN(C)Cc2ccccc2)cc1  Gonadotropin-releasing hormone receptor (Homo sapiens, UniProt P30968)      met
1  COc1ccc(-c2nc3n(Cc4ccccc4F)c(C)c(-c4ccc5c(c4)OCO5)c(=O)n3c2CN(C)CCc2ccncc2)cc1  Gonadotropin-releasing hormone receptor (Homo sapiens, UniProt P30968)  not met
2  COc1ccc(-c2nc3n(Cc4ccccc4F)c(C)c(-c4ccc5c(c4)OCO5)c(=O)n3c2CN2CCOCC2)cc1  Gonadotropin-releasing hormone receptor (Homo sapiens, UniProt P30968)  not met
3  COc1ccc(-c2nc3n(Cc4ccccc4F)c(C)c(-c4ccc(OC)c(OC)c4)c(=O)n3c2CN(C)CCc2ccccn2)cc1  Gonadotropin-releasing hormone receptor (Homo sapiens, UniProt P30968)  not met
4  CCCCN(C)Cc1c(-c2ccc(OC)cc2)nc2n(Cc3ccccc3F)c(C)c(-c3ccc4c(c3)OCO4)c(=O)n12  Gonadotropin-releasing hormone receptor (Homo sapiens, UniProt P30968)  not met

Please state whether Ki is below 80 nM for COc1ccc(-c2nc3n(Cc4ccccc4F)c(C)c(-c4ccc5c(c4)OCO5)c(=O)n3c2CN2CCCN(C)CC2)cc1
not met

Just wondering, is Ki of COc1ccc(-c2nc3n(Cc4ccccc4F)c(C)c(-c4cc(Cl)cc(Cl)c4)c(=O)n3c2CN(C)CCc2ccccn2)cc1 below 80 nM?
not met

Problem: For the molecule COc1ccc(-c2nc3n(Cc4ccccc4F)c(C)c(Br)c(=O)n3c2CN(C)CCc2ccccn2)cc1 , is Ki under 80 nM?
not met

Reference source for all entries: ChEMBL document CHEMBL1136027
